PROCEDURE SUMMARY: Molar membrane partition coefficient (logKp) by 19F MAS solid-state NMR in lipid vesicles
Assay type: physicochemical
CONDITIONS: multilamellar POPC vesicles, Table S1; hydration 10 % w/v, substrate/lipid 0.033 mole/mole
Excerpt: The principle of the method is explained in Figure 2 (with a detailed description of the protocol provided in Supporting Information). The method utilizes ^19F MAS NMR to quantitate the partitioning of the fluorinated compounds between the aqueous and membrane phases. […] With knowledge of the number of water ( nW ) and lipid ( nM ) molecules, the molar partition coefficient ( KP) is readily determined. […]
ASSAY ENDPOINT: Kp at 0.033 mole/mole substrate/lipid
Answer as a number with no unit attached.

Quick one: give measured Kp at 0.033 mole/mole substrate/lipid for OCCC(F)(F)CCO [compound 10]
81.8

----------
PROCEDURE SUMMARY: Molar membrane partition coefficient (logKp) by 19F MAS solid-state NMR in lipid vesicles
Assay type: physicochemical
CONDITIONS: multilamellar POPC vesicles, Table S1; hydration 10 % w/v, substrate/lipid 0.010 mole/mole
ASSAY ENDPOINT: Kp at 0.01 mole/mole substrate/lipid
Answer as a number with no unit attached.

Quick one: give measured Kp at 0.01 mole/mole substrate/lipid for OCCC(F)(F)CCO
53.4

----------
Record form. Attribute: logP. Fill in for each entry.
PROCEDURE SUMMARY: Octanol-water partition coefficient (logP OW), 19F NMR method with reference compound
CONDITIONS: octanol/water, Average logP, triplicate
Answer as a number with no unit attached.

Quick one: give measured logP for CO[C@@H]1O[C@H](CF)[C@@H](F)[C@H](O)[C@H]1O
-1.05

Quick one: give measured logP for CO[C@@H]1O[C@H](CF)[C@H](F)[C@H](O)[C@H]1O
-1.25

Quick one: give measured logP for CO[C@H]1O[C@H](CF)[C@@H](F)[C@H](O)[C@H]1O
-0.71

Quick one: give measured logP for CO[C@H]1O[C@H](CF)[C@H](F)[C@H](O)[C@H]1O
-0.9

----------
PROCEDURE SUMMARY: Molar membrane partition coefficient (logKp) by 19F MAS solid-state NMR in lipid vesicles
Format: physicochemical
CONDITIONS: Table S2; POPC, one 19F resonance evaluated
Text: The principle of the method is explained in Figure 2 (with a detailed description of the protocol provided in Supporting Information). The method utilizes ^19F MAS NMR to quantitate the partitioning of the fluorinated compounds between the aqueous and membrane phases. […] With knowledge of the number of water ( nW ) and lipid ( nM ) molecules, the molar partition coefficient ( KP) is readily determined. […]
ASSAY ENDPOINT: Molar Partition Coefficient (logKP)
Answer as a number with no unit attached.

Quick one: give measured Molar Partition Coefficient (logKP) for OCCC(F)CCO
1.68

Quick one: give measured Molar Partition Coefficient (logKP) for OCCCC(F)(F)CO
2.01

Quick one: give measured Molar Partition Coefficient (logKP) for OC[C@@H](F)C[C@H](F)CO
1.85

Quick one: give measured Molar Partition Coefficient (logKP) for OCC1(F)CC1
2.08

Quick one: give measured Molar Partition Coefficient (logKP) for OC[C@H]1C[C@@H]1F
2.17

Quick one: give measured Molar Partition Coefficient (logKP) for OCC(F)CC(F)(F)CO (stereo not drawn)
2.01

Quick one: give measured Molar Partition Coefficient (logKP) for OCCC(F)(F)CCO
1.83

Quick one: give measured Molar Partition Coefficient (logKP) for OC[C@H](F)C[C@@H](F)CO (single isomer, unassigned)
1.82

Quick one: give measured Molar Partition Coefficient (logKP) for OCC1CC1(F)F (stereo not drawn)
2.54

Quick one: give measured Molar Partition Coefficient (logKP) for OC[C@@H]1C[C@@H]1F
2.02

Quick one: give measured Molar Partition Coefficient (logKP) for OCC(F)(F)CC(F)(F)CO
2.40

Quick one: give measured Molar Partition Coefficient (logKP) for OC[C@@H](F)C[C@@H](F)CO
1.71
